Each recorded value in this set is attributed to patent US8759013B2.

- TARGET OR SYSTEM: histamine receptor subtype 1 (H1R) (Homo sapiens)
- Sequence (P35367 whole entry): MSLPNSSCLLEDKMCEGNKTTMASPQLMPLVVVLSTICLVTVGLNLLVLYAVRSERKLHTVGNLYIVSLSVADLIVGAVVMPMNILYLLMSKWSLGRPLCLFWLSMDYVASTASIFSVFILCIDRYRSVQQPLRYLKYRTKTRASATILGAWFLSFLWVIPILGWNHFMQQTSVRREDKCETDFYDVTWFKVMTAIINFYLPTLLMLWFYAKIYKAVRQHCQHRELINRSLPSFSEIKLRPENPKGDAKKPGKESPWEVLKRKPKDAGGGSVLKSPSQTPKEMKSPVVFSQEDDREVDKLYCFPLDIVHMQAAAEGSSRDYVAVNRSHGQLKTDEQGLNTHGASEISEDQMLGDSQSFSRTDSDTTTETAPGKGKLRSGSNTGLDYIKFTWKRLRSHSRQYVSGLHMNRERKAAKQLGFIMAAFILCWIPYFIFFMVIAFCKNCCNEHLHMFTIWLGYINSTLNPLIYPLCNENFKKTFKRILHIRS
- ASSAY: Antagonist pretreatment against the histamine-induced DMR signal in A431 cells
- Assay type: cell-based
- Set-up: endogenous in cells; host or cells: A431 (human epidermoid carcinoma), quiescent after serum starvation
- CONDITION CONTEXT: pretreatment of A431 with compound at 1 μM
READOUT LABEL: effect on the DMR signal induced by 1 μM histamine

>  <COMPOUND>
Clc1ccc(Cn2c(CN3CCCC3)nc3ccccc32)cc1

>  <OBSERVED>
completely inhibited

$$$$
>  <COMPOUND>
CN(C)CCC(c1ccc(Br)cc1)c1ccccn1 (racemic) [(±)-brompheniramine]

>  <OBSERVED>
completely inhibited

$$$$
>  <COMPOUND>
Cc1ccc(/C(=C\CN2CCCC2)c2ccccn2)cc1

>  <OBSERVED>
completely inhibited

$$$$

----------
- TARGET OR SYSTEM: β2-adrenergic receptor (β2AR) (Homo sapiens, UniProt P07550)
- Sequence (P07550 whole entry): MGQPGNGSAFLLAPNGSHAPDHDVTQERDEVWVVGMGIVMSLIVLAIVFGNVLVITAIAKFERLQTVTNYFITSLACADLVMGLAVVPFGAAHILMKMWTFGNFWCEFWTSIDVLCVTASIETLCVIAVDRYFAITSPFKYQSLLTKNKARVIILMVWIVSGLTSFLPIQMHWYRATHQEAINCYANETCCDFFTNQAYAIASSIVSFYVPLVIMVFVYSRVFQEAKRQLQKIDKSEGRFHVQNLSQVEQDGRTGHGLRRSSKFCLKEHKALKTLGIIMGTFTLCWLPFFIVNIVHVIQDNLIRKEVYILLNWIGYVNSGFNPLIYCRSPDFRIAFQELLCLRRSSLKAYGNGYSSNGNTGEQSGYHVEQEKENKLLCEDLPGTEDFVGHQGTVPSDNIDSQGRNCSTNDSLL
- ASSAY: Dual receptor-specific antagonist screening (LOPAC), epinephrine response
- Format: cell-based
- Set-up: A431 cells endogenously express both PAR1 and β2AR; endogenous in cells; host or cells: A431 (human epidermoid carcinoma), quiescent after serum starvation
- CONDITION CONTEXT: compound 1 microM for one hour, then cocktail of epinephrine and histamine
READOUT LABEL: effect on the epinephrine response in the co-stimulation

>  <MOLECULE>
CN(C)CCC=C1c2ccccc2CCc2ccccc21

>  <OBSERVED>
little effect

$$$$
>  <MOLECULE>
NC(N)=Nc1nc(CSCCC(N)=NS(N)(=O)=O)cs1

>  <OBSERVED>
partial desensitization

$$$$
>  <MOLECULE>
CNCCCC12CCC(c3ccccc31)c1ccccc12

>  <OBSERVED>
little effect

$$$$
>  <MOLECULE>
CC(COc1ccccc1)N(CCCl)Cc1ccccc1 (centres unmarked)

>  <OBSERVED>
little effect

$$$$
>  <MOLECULE>
Clc1ccc2c(c1)C(N1CCNCC1)=Nc1ccccc1O2

>  <OBSERVED>
little effect

$$$$

Attention now turns to another entry.
Exercise: Sample c1cc(CN2CCCCC2)cc(OCCCNc2nc3ccccc3s2)c1 — what was its effect on the epinephrine response in the co-stimulation?
Key: partial desensitization
